Biological target: IKKε (Homo sapiens)
Sequence (Q14164 1-716): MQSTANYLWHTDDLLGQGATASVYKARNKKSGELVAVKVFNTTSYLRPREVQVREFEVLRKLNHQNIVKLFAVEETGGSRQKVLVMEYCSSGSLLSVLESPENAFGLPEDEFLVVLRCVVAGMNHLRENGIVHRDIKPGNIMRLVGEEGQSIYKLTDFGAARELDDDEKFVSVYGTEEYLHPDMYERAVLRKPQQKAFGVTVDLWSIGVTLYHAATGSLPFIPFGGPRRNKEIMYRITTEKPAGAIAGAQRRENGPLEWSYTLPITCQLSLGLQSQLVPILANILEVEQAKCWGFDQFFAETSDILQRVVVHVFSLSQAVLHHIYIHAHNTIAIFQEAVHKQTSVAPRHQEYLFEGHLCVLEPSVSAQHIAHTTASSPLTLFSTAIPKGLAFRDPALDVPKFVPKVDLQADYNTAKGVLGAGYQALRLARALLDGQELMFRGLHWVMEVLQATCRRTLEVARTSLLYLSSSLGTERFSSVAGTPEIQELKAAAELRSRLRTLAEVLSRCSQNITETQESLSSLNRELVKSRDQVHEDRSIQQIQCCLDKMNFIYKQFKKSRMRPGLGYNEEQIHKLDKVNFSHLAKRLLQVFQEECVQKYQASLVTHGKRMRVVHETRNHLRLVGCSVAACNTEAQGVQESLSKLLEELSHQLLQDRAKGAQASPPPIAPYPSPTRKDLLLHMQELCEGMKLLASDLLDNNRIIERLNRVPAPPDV
Test: IKKε biochemical assay
Settings: IKKε_IC50, 10 point 1:4 dose response, 30 uM top concentration, 90 min at 25° C., LabChip EZ Reader II
pIC50: −log10 of the molar value.
measurement.name: pIC50

What value of pIC50 on IKKε (Homo sapiens) does `COc1nc(Nc2nccc(-c3ccc(OC4CCOCC4)c(C#N)c3)n2)ccc1C(=O)N1CC2CC(C1)O2` have? > 7.00

----------
Biological target: TBK1 (Homo sapiens, UniProt Q9UHD2)
Test: TBK biochemical assay
Details: 10 point 1:4 dose response, 30 uM top concentration, 90 min at 25° C., LabChip EZ Reader II; read-out: TBK1_IC50
Counter-ions that a name gives are not always drawn.
measurement.name: IC50

Reported IC50 for `COc1nc(Nc2nccc(-c3ccc(O[C@H]4CCN(C(=O)c5cnn[nH]5)C[C@H]4F)c(C#N)c3)n2)ccc1N1CCN(C2COC2)CC1` : what is it? < 100 nM

Further, for C[C@H](O)C(=O)N1CCC(Oc2ccc(-c3ccnc(Nc4ccncc4)n3)cc2C#N)C(F)(F)C1 (some centres unmarked) ? < 100 nM

Further, for COc1nc(Nc2nccc(-c3ccc(OC4CCN(C(=O)[C@@H]5CC5(F)F)CC4(F)F)c(C#N)c3)n2)ccc1N1CCN(C2COC2)CC1 (some centres unmarked) ? < 100 nM

Further, for COc1nc(Nc2nccc(-c3ccc(OC4CCOCC4)c(C#N)c3)n2)ccc1C1CCN(C)CC1F (centres unmarked) ? < 100 nM

Further, for CC[C@H](O)C(=O)N1CCC(Oc2ccc(-c3ccnc(Nc4ccc(N5CCN(C6COC6)CC5)c(OC)n4)n3)cc2C#N)C(F)(F)C1 (some centres unmarked) ? < 100 nM

Further, for C[C@H](O)C(=O)N1CCC(Oc2ccc(-c3ccnc(Nc4ccccc4)n3)cc2C#N)C(F)(F)C1 (some centres unmarked) ? < 100 nM

Further, for `COc1nc(Nc2nccc(-c3ccc(OC4CCOCC4)c(C#N)c3)n2)ccc1C(=O)N1CCN(CCO)CC1` ? < 100 nM

Further, for `COc1nc(Nc2nccc(-c3ccc(OC4CCOCC4)c(C#N)c3)n2)ccc1C(=O)N1C2CCCC1COC2` ? < 100 nM

Further, for N#Cc1cc(-c2ccnc(Nc3ccc(C4CCN(C5COC5)C4)cc3)n2)ccc1OC1CCNCC1(F)F (centres unmarked) [Example 155, hydrochloride] ? < 100 nM

Further, for CC(O)C(=O)N1CCC(Oc2ccc(-c3ccnc(Nc4ccc(C5CCN(C)CC5)cc4)n3)cc2C#N)C(F)(F)C1 (centres unmarked) ? < 100 nM

Further, for `COc1cccc(Nc2nccc(-c3ccc(OC4CCN(C(=O)c5n[nH]c(C)n5)CC4)c(C#N)c3)n2)n1` ? < 100 nM

Further, for COc1cc(N2CCN(C3COC3)CC2)cnc1Nc1nccc(-c2ccc(OC3CCN(C(=O)[C@H](C)O)CC3(F)F)c(C#N)c2)n1 (some centres unmarked) ? 100 to 1000 nM

Further, for N#Cc1cc(-c2ccnc(Nc3cccc(C4CCN(C(CO)CO)CC4)c3)n2)ccc1OC1CCNCC1(F)F (centres unmarked) ? < 100 nM

Further, for COc1nc(Nc2nccc(-c3ccc(OC4CCN(C(=O)[C@H](C)O)CC4(F)F)c(C#N)c3)n2)ccc1N1CCN(C)[C@@H](C)C1 (some centres unmarked) ? < 100 nM

----------
Target: TBK1 (Homo sapiens, UniProt Q9UHD2)
Experiment: TBK biochemical assay
Conditions: 10 point 1:4 dose response, 30 uM top concentration, 90 min at 25° C., LabChip EZ Reader II; read-out: TBK1_IC50
Structures can show the parent of a compound that is named as a salt.
measurement.name: IC50

Reported IC50 for COc1nc(Nc2nccc(-c3ccc(OC4CCN(C(=O)[C@H](C)O)CC4(F)F)c(C#N)c3)n2)ccc1N1CCN(C2COC2)[C@H](C)C1 (stereo partly drawn) : what is it? < 100 nM

Further, for COc1cc(Nc2nccc(-c3ccc(OC4CCN(C(=O)C(C)O)CC4(F)F)c(C#N)c3)n2)ccn1 (stereo in doubt) ? < 100 nM

Further, for COc1nc(Nc2nccc(-c3ccc(OC4CCN(C(=O)[C@@H]5CCC(=O)N5)CC4(F)F)c(C#N)c3)n2)ccc1N1CCN(C2COC2)CC1 (stereo partly drawn) ? < 100 nM

Further, for COc1nc(Nc2nccc(-c3cc(C#N)c(OC4CCOCC4)cn3)n2)ccc1N1CCN(C)CC1 [Example 44, hydrochloride] ? 1000 to 5000 nM

Further, for COc1nc(Nc2nccc(-c3ccc(OC4CCN(C(=O)[C@@H](O)C(C)C)CC4(F)F)c(C#N)c3)n2)ccc1C1CCN(C2COC2)CC1 (stereo partly drawn) ? < 100 nM

Further, for `CN1CCN(c2ccc(Nc3nccc(-c4ccc(OC5CCOCC5)c(C#N)c4)n3)cn2)CC1` ? < 100 nM

----------
Target: TBK1 (Homo sapiens, UniProt Q9UHD2)
Sequence (Q9UHD2 1-729): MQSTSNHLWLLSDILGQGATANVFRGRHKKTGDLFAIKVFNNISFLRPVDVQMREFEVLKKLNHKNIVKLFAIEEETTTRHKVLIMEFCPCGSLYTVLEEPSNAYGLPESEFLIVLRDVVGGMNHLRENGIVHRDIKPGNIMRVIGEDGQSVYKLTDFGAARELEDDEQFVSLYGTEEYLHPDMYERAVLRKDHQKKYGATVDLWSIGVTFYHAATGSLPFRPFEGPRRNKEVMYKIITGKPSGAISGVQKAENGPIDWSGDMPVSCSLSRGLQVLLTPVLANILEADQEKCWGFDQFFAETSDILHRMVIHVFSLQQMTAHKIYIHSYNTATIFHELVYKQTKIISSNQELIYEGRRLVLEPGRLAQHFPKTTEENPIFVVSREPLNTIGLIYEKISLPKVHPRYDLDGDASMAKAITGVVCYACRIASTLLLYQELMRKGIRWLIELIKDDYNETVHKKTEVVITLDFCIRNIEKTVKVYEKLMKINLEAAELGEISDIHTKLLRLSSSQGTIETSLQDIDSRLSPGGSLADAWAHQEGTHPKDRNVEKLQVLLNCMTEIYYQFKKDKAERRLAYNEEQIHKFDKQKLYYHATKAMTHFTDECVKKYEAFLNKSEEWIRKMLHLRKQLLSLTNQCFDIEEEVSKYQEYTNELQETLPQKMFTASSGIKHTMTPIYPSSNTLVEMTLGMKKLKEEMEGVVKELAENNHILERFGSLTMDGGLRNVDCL
Assay: TBK biochemical assay
Conditions: 10 point 1:4 dose response, 30 uM top concentration, 90 min at 25° C., LabChip EZ Reader II; read-out: TBK1_IC50
Method: Test compounds were transferred into Labcyte polypropylene 384 well plates (P055-25) and diluted to 3 mM using DMSO. […] 100 uM of a reference compound (1 uM final high concentration). Backfilling was performed if necessary so that all wells contain 1% DMSO final: […]
Where a name gives a salt, the structure may show the parent alone.
Record form. Attribute: IC50. Fill in for each entry.

Reported IC50 for COc1nc(Nc2nccc(-c3ccc(OC4CCOCC4)c(C#N)c3)n2)ccc1N1C[C@@H](C)O[C@@H](C)C1 [Example 37] : what is it? < 0.1 µM

Further, for COc1nc(Nc2nccc(-c3ccc(OC4CCN(C(=O)[C@@H](O)CO)CC4C)c(C#N)c3)n2)ccc1N1CCN(C2COC2)CC1 (some centres unmarked) [Example 272] ? < 0.1 µM

Further, for COc1nc(Nc2nccc(-c3ccc(O[C@H]4CCN(C(=O)CO)C[C@H]4F)c(C#N)c3)n2)ccc1C(=O)N(C)C [Example 75, hydrochloride] ? < 0.1 µM

Further, for COc1cccc(Nc2nccc(-c3ccc(O[C@H]4CCN(C(=O)[C@H](C)O)CC4(F)F)c(C#N)c3)n2)n1 [Example 240] ? 0.1 to 1 µM

Further, for COc1nc(Nc2nccc(-c3ccc(OC4CCOCC4)c(C#N)c3)n2)ccc1CNC1CCN(C)CC1 [Example 41, hydrochloride] ? < 0.1 µM

Further, for CCOc1nc(Nc2nccc(-c3ccc(OC4CCN(C(=O)[C@H](C)O)CC4(F)F)c(C#N)c3)n2)ccc1N1CCN(C2COC2)CC1 (some centres unmarked) [Example 249] ? < 0.1 µM

Further, for COc1cc(Nc2nccc(-c3ccc(OC4CCN(C(=O)CO)CC4(F)F)c(C#N)c3)n2)ccn1 (centres unmarked) [Example 326] ? < 0.1 µM

Further, for COc1nccc(Nc2nccc(-c3ccc(OC4CCNCC4(F)F)c(C#N)c3)n2)n1 (centres unmarked) [Example 232] ? 0.1 to 1 µM

Further, for C[C@H](O)C(=O)N1CCC(Oc2ccc(-c3ccnc(Nc4cccnc4)n3)cc2C#N)C(F)(F)C1 (some centres unmarked) [Example 205] ? < 0.1 µM

Further, for COc1nc(Nc2nccc(-c3ccc(O[C@@H]4CCNC[C@@H]4F)c(C#N)c3)n2)ccc1C1CCN(C2COC2)CC1 [Example 235] ? 0.1 to 1 µM

Further, for C[C@@H](O)C(=O)N1CC(COc2ccc(-c3ccnc(Nc4ccc(N5CCN(C6COC6)CC5)cc4)n3)cc2C#N)C1 [Example 278] ? 0.1 to 1 µM

Further, for COc1nc(Nc2nccc(-c3ccc(OC4(C)CCN(C(=O)[C@@H](O)CO)CC4(F)F)c(C#N)c3)n2)ccc1N1CCN(C2COC2)CC1 (some centres unmarked) [Example 264] ? < 0.1 µM

Further, for COc1nc(Nc2nccc(-c3ccc(O[C@H]4CCN(C(=O)[C@H](C)O)C[C@H]4F)c(C#N)c3)n2)ccc1C1CCN(C2COC2)CC1 [Example 191] ? < 0.1 µM

Further, for N#Cc1cc(-c2ccnc(Nc3ccc(N4CCN(C5COC5)CC4)cn3)n2)ccc1OC1CCOCC1 [Example 165] ? < 0.1 µM

The measured values listed here are drawn from patent US20230019491A1.
